method: stimulators of insulin release from INS-1E, primary screen, cell-based, 5 mM glucose, NPC library (AID 1117329)
test context: rat INS-1E insulin secretion, at 10 µM, stronger effect = higher value
Provide the reported insulin secretion stimulation of each item.
Answers are plain numbers, in %.

Consider the reported insulin secretion stimulation for these compounds:
compound	recorded measurement
COc1cc2c(cc1OC)-c1cc(=Nc3c(C)cc(C)cc3C)n(C)c(=O)n1CC2	1.3
Oc1c(I)cc(I)c2cccnc12	0.55
COc1c2occc2c(OC)c2c(=O)cc(C)oc12	0.7

// for each compound below, give its insulin secretion stimulation
1. Cc1nc2n(c(=O)c1CCN1CCC(c3noc4cc(F)ccc34)CC1)CCCC2
2. COC(=O)CCc1ccc(OCC(O)CNC(C)C)cc1 (stereo unspecified)
3. CN(C)CCC=C1c2ccccc2C=Cc2ccccc21

1: 2.5; 2: 6.9; 3: 15.2

* * *

Provide the reported log fold change Tl+ flux of each item.
Tested on: R275C/Slo1WT/beta2
method: BK channel mutant inhibitors and activators – cell-based, U2OS BacMam, thallium flux, beta subunits, selectivity assay, profiling panel (AID 1259406);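 further: initial slope of Thallos dye fluorescence rise after thallium is added; log ratio against the mean of 0.3% DMSO vehicle wells on the same plate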
test context: U2OS BacMam BK variants, at 30 µM
Activity calls are given as the source filed them.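 How the source made its calls: active means thallium flux through the channel raised or lowered by more than 3 SD from vehicle-only wells, actives on both sides; inactive means the rest.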

Consider the reported log fold change Tl+ flux for these molecules:
molecule	result type	recorded measurement
CC(C(=O)O)c1ccc(CC2CCCC2=O)cc1 (stereo not drawn)	log fold change Tl+ flux	0.00782 (inactive)
CC(C)(C)C(O)/C=C/c1ccc2c(c1)OCO2 (stereo not drawn)	log fold change Tl+ flux	-0.0107 (inactive)
NC(=O)OCC(COC(N)=O)c1ccccc1	log fold change Tl+ flux	0.0103 (inactive)

// for each molecule below, give its log fold change Tl+ flux
1. C[C@@H]1CN(CCCn2c3ccccc3c3ccccc32)C[C@H](C)N1
2. CC(C)(O)c1ccccc1CC[C@@H](SCC1(CC(=O)O)CC1)c1cccc(/C=C/c2ccc3ccc(Cl)cc3n2)c1
3. CC(=O)Oc1ccccc1C(=O)Nc1ncc([N+](=O)[O-])s1
4. CC(c1cc2ccccc2s1)N(O)C(N)=O (stereo not drawn)

["0.00517 (inactive)", "0.13 (active)", "0.00625 (inactive)", "0.0381 (inactive)"]

// for each molecule below, give its log fold change Tl+ flux
1. CCCN1CCCC[C@H]1C(=O)Nc1c(C)cccc1C
2. Cc1cccc(C)c1OCC(C)N (stereo not drawn)
3. O=c1[nH]cnc2c1ncn2[C@H]1CC[C@@H](CO)O1
4. COC(=O)C1=C(C)NC(C)=C(C(=O)OC(C)C)C1c1cccc2nonc12 (stereo not drawn)
5. OCc1cccnc1

0.0315 (inactive)
0.0729 (inactive)
0.00413 (inactive)
-0.0356 (inactive)
0.0162 (inactive)

// for each molecule below, give its log fold change Tl+ flux
1. O=C(NCCO[N+](=O)[O-])c1cccnc1
2. CN(C/C=C/C#CC(C)(C)C)Cc1cccc2ccccc12

1: -0.00283 (inactive); 2: 0.012 (inactive)

// for each molecule below, give its log fold change Tl+ flux
1. COC1=C(OC)C(=O)C(CCCCCCCCCCO)=C(C)C1=O
2. CC(C)(C#N)c1cc(Cn2cncn2)cc(C(C)(C)C#N)c1
3. Cc1ncc([N+](=O)[O-])n1CC(O)CCl (stereo not drawn)

1. -0.0534 (inactive)
2. -0.000892 (inactive)
3. -0.016 (inactive)

// for each molecule below, give its log fold change Tl+ flux
1. CCc1c(C)[nH]c2c1C(=O)C(CN1CCOCC1)CC2 (stereo not drawn)
2. CC(C)(C)NC(=O)[C@@H]1CN(Cc2cccnc2)CCN1C[C@@H](O)C[C@@H](Cc1ccccc1)C(=O)N[C@H]1c2ccccc2C[C@H]1O
3. CCOc1cc(CC(=O)N[C@@H](CC(C)C)c2ccccc2N2CCCCC2)ccc1C(=O)O
4. CCN1CCCC1CNC(=O)c1cc(S(=O)(=O)CC)c(N)cc1OC (stereo not drawn)
5. O=C(NCCN1CCOCC1)c1ccc(Cl)cc1
6. OCCOCCN1CCN(C2=Nc3ccccc3Sc3ccccc32)CC1

1. 0.00393 (inactive)
2. 0.101 (active)
3. 0.0386 (inactive)
4. 0.0112 (inactive)
5. -0.0216 (inactive)
6. -0.027 (inactive)

// for each molecule below, give its log fold change Tl+ flux
1. CNNCc1ccc(C(=O)NC(C)C)cc1
2. CC(C)c1ccc2oc3nc(N)c(C(=O)O)cc3c(=O)c2c1
3. Nc1nc2c(ncn2CCC(CO)CO)c(=O)[nH]1
4. N#Cc1ccc(C(c2ccc(C#N)cc2)n2cncn2)cc1

0.0113 (inactive)
0.0208 (inactive)
-0.0115 (inactive)
0.00776 (inactive)

// for each molecule below, give its log fold change Tl+ flux
1. NC1CCN(c2nc3c(cc2F)c(=O)c(C(=O)O)cn3-c2ccc(F)cc2F)C1 (stereo not drawn)
2. O=C(O)/C=C/c1ccc(Cn2ccnc2)cc1
3. Cc1[nH]cnc1CN1CCc2c(c3ccccc3n2C)C1=O
4. COc1ccccc1N1CCN(CC(O)COc2cccc3ccccc23)CC1 (stereo not drawn)

0.0163 (inactive)
0.0187 (inactive)
0.0535 (inactive)
-0.0505 (inactive)

// for each molecule below, give its log fold change Tl+ flux
1. Nc1nc2c(ncn2COC(CO)CO)c(=O)[nH]1
2. COC(=O)CCc1ccc(OCC(O)CNC(C)C)cc1 (stereo not drawn)

1. -0.00303 (inactive)
2. 0.0231 (inactive)
